Exercise: state measured uptake ratio at 1 min, 2.5 µM for each of the compounds provided.
# SUBJECT_OF_TEST: MATE1 (Homo sapiens, UniProt Q96FL8)
# Sequence (Q96FL8 whole entry): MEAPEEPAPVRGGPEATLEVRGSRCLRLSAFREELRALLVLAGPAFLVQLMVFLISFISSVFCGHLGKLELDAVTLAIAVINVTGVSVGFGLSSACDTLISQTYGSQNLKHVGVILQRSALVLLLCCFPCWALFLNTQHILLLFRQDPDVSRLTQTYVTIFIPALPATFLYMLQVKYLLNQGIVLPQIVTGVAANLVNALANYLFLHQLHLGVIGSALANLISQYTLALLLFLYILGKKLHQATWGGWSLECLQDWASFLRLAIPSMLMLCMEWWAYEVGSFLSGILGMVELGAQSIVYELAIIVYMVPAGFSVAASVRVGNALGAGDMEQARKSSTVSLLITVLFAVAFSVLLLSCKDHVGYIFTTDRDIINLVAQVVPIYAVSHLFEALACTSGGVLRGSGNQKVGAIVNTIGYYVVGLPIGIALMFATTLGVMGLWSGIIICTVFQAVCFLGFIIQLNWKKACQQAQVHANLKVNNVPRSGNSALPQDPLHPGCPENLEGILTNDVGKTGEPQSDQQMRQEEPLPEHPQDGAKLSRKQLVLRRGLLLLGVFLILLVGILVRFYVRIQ
# METHOD_DESCRIPTION: in vitro
# ASSAY_CONTEXT: hek293

COMPOUND | uptake ratio at 1 min, 2.5 µM
CC(=O)Nc1ccc(OCC(O)CNC(C)C)cc1 (stereo not given) | > 2
CN/C(=N/CCSCc1nc[nH]c1C)NC#N | > 2
NCCCCN | < 2
Cc1ncc(CO)c(CN)c1O | > 2

Could you now consider this next compound?
Give recorded uptake ratio at 1 min, 2.5 µM. CCCC(=O)Nc1ccc(OCC(O)CNC(C)C)c(C(C)=O)c1 (stereo not given)
> 2

The reported numbers originate from ChEMBL document CHEMBL6182944.
